tested on: MDA-MB-435; assay: NCI tumour cell line growth inhibition, 48 h
Measured TGI values are reported for all entries that follow.

Measured TGI of CS(=O)(=O)N1CC(CI)c2ccc(O)cc21 (stereo unspecified) : 4.2 µM

The reported value for "NC(N)=NS(=O)(=O)c1ccc(Nc2c3ccccc3nc3c(C(=O)NNCCO)cccc23)cc1" in terms of TGI is 0.446 µM

Record summary for "O=C(c1ccccc1)C(C(=O)c1ccccc1)c1nc2ccccc2sc1=O" : reported TGI = > 25 µM

* * *

Each record here notes measured TGI.
tested on: IGROV1 ovarian; experiment: NCI tumour cell line growth inhibition, 48 h

Past entries and their recorded results:
COc1ccc(NCc2cc(OC)c(OC)c(OC)c2)cc1 = > 100 µM
COCN1C(=O)C2CC(/C=C/C(N)=O)=CN2C(=O)c2ccccc21 (stereo unspecified) = > 100 µM
C[n+]1c(-c2ccccc2)cc2/c(=C\c3ccccc3)c3ccccc3n21 = 2.64 µM
N#C/C(=N/Nc1nc[nH]c1C(N)=O)C(=O)Nc1ccccc1 = > 100 µM
O=C(N/S(=N/S(=O)(=O)c1ccc(Br)cc1)C(Cl)(Cl)Cl)c1ccccc1 (stereo unspecified) = > 100 µM

get_value(item= CC(C)C1CNC2N1C(=O)C2(C)OCc1ccccc1 (stereo unspecified) , readout=TGI) returns > 100 µM

* * *

Below, each entry is listed alongside its reported TGI.
system: HCC-2998 colon; assay: NCI tumour cell line growth inhibition, 48 h

Example cases with answers are listed next.
CC(C)OC(=O)C1=C2c3ncccc3C(=O)N2[C@@H](Cl)[C@@H](Cl)[C@@H]1Cl = > 100 µM
O=C1/C(=C/c2ccc(Cl)cc2)COc2ccc(O)cc21 = 3.33 µM
CC(C)C1=C(O)C2=C(C(=O)C1=O)C1(C)CCCC(C)(C)C1CC2O (stereo not given) = 12 µM
COc1cc2c(c(OC)c1OC)-c1cccc(=O)cc1C(NC(C)=O)CC2 (stereo not given) = > 13.6 µM
Cc1cc(C)c(-c2cc(O)c(-c3c(C)cc(C)cc3C)cc2O)c(C)c1 = > 100 µM
COc1cc(/C=N/Nc2ncnc3[nH]ncc23)ccc1O = > 25 µM
CCCCNCC(O)c1cc2c(Cl)cc(Cl)cc2c2cc(C(F)(F)F)ccc12 (stereo not given) = 2.94 µM
CC(C)CC(C(N)=O)C(=O)NC(Cc1ccccc1)NC(=O)CNC(=O)C(C)NC(=O)C(N)Cc1ccc(O)cc1 (stereo not given) = > 100 µM

Documented TGI of "CCOc1nc(OCC)nc(-c2cccn2-c2ccccc2)n1" : > 100 µM

Lookup result for "c1ccc(CSc2nc(N3CCCCC3)c3cn[nH]c3n2)cc1" ; measured TGI: 45 µM

* * *

test system: SK-MEL-5 melanoma; experiment: NCI tumour cell line growth inhibition, 48 h
Below is a list of entries, each paired with its recorded GI50 value.

Past entries and their recorded results:
Cc1cc(-c2ncc(-c3cccnc3)cc2/C=C/c2ccccc2)cnc1-c1cccnc1 = 1.46 µM
Cn1cc(-c2nc3c(F)cc4[nH]ncc4c3c3c2CCCC3)c(C(F)(F)F)n1 = 9.12 µM
CCCC(c1nnnn1C1CCCCC1)N1CCN(C(=O)c2ccco2)CC1 (stereo not given) = > 100 µM

Entry "COC1=CC(c2ccc[nH]2)=N/C1=C\c1[nH]c(C)c(C(=O)CCCCC(=O)NCc2ccccc2)c1C" ; GI50 = 10.8 µM

# GI50 (compound: "Cc1cc2c([nH]1)CSc1cc(S(=O)(=O)c3ccccc3)c(=O)[nH]c1-2" ) is 0.5 µM

This collection of values is drawn from PubChem BioAssay (NCI).
